System: normal primary NK cells, pool 1 (3 donors), resting (IL-2 0 ng/mL);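 note: normalised to DMSO-only wells as negative and benzethonium chloride as positive control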
Experiment: percent inhibition of viability; higher = more inhibition
Conditions: 72 h; 0.1 nM
Would you kindly list percent inhibition of viability for each of these molecules?
Kindly provide the numeric value in % only, without the unit symbol.

Data request: So what's the measured percent inhibition of viability for this one? CN(C)C/C=C/C(=O)Nc1cc2c(Nc3ccc(F)c(Cl)c3)ncnc2cc1O[C@H]1CCOC1 [Afatinib] (max concentration tested 1000 nM)
Data returned: 1.52

Data request: percent inhibition of viability for CC[C@]1(O)C[C@@H]2CN(CCc3c([nH]c4ccccc34)[C@@](C(=O)OC)(c3cc4c(cc3OC)N(C)[C@H]3[C@@](O)(C(=O)OC)[C@H](OC(C)=O)[C@]5(CC)C=CCN6CC[C@]43[C@@H]65)C2)C1 [Vinblastine] (max concentration tested 1000 nM) ?
Data returned: -21.5

Data request: GET /values?readout=percent inhibition of viability&item= COc1cccc2c1C(=O)c1c(O)c3c(c(O)c1C2=O)C[C@@](O)(C(C)=O)C[C@@H]3O[C@H]1C[C@H](N)[C@H](O)[C@H](C)O1 [Daunorubicin] (max concentration tested 1000 nM)
Data returned: -16.4
